Data credit: BigSolDB 2.1

Conditions: in isopropanol, 288.15 K
measured parameter: solubility (mole fraction)

Lookup: Which solubility (mole fraction) value belongs to `CO[C@@]1(NC(=O)CSCC#N)C(=O)N2C(C(=O)O)=C(CSc3nnnn3C)CS[C@@H]21` ?
Found: 8.19e-05
